System: HEK293
Protocol Description: MTS cell proliferation assay, HEK293 (non-cancerous kidney cell)
Assay type: cell-based
Condition Notes: Homo sapiens, HEK293; MTS assay, 48 hours; normal cells
Metric Name: IC50

>>> result_value("O=C(O)CCCCCCC(=O)NCCCC[C@H](NC(=O)OCc1ccccc1)C(=O)Nc1ccccc1 [Compound 16c]")
"> 500 µM"

Please look at the following molecule next.
Query: IC50; subject: O=C(CCCCCCC(=O)NCCCC[C@H](NC(=O)OCc1ccccc1)C(=O)Nc1ccccc1)NO [Compound 18c] > 500 µM

###

System: HDACs (HeLa nuclear extract)
Protocol Description: HDAC deacetylation inhibition assay, HeLa nuclear extract with BOC-Ac-Lys-AMC substrate
Assay type: biochemical, human
Condition Notes: compound at 100 µM, BOC-Ac-Lys-AMC substrate
Parameter class (string): assigned from measured HDAC inhibition (%). Ranges: category 1 = under 10%, category 2 = from 10% up to 40%, category 3 = 40% and over

Check out these entries, answers already filled in.
>>> label_value("COC(=O)CCCCC(=O)NCCCC[C@H](NC(=O)OCc1ccccc1)C(=O)Nc1ccccc1 [Compound 15b]")
"category 1"
>>> label_value("O=C(N[C@@H](CCCCNC(=O)c1ccc[nH]1)C(=O)Nc1ccccc1)OCc1ccccc1 [Compound 14d]")
"category 3"
>>> label_value("Nc1ccccc1NC(=O)CC(=O)NCCCC[C@H](NC(=O)OCc1ccccc1)C(=O)Nc1ccccc1 [Compound 17a]")
"category 1"
>>> label_value("O=C(N[C@@H](CCCCNC(=O)c1csc2ccccc12)C(=O)Nc1ccccc1)OCc1ccccc1 [Compound 14n]")
"category 2"
>>> label_value("O=C(/C=C/c1cccnc1)NCCCC[C@H](NC(=O)OCc1ccccc1)C(=O)Nc1ccccc1 [Compound 14c]")
"category 3"

Which of the defined bands does the recorded HDAC inhibition (%) of N[C@@H](Cc1c[nH]c2ccccc12)C(=O)NCCCC[C@H](NC(=O)OCc1ccccc1)C(=O)Nc1ccccc1 [Compound 14q] sit within? category 2

Which of the defined bands does the recorded HDAC inhibition (%) of Nc1ccccc1NC(=O)CCCCC(=O)NCCCC[C@H](NC(=O)OCc1ccccc1)C(=O)Nc1ccccc1 [Compound 17b] sit within? category 3

Which of the defined bands does the recorded HDAC inhibition (%) of COC(=O)CCCCCCC(=O)NCCCC[C@H](NC(=O)OCc1ccccc1)C(=O)Nc1ccccc1 [Compound 15c] sit within? category 1

###

HDAC inhibition (%) values for the compounds below.
Test system: HDACs (HeLa nuclear extract)
Protocol Description: HDAC deacetylation inhibition assay, HeLa nuclear extract with BOC-Ac-Lys-AMC substrate
Type: biochemical, human
Condition Notes: compound at 100 µM, BOC-Ac-Lys-AMC substrate
Numeric answer only, unit % assumed.

Query: HDAC inhibition (%); subject: O=C(CC1SC(=O)NC1=O)NCCCC[C@H](NC(=O)OCc1ccccc1)C(=O)Nc1ccccc1 (stereo partly drawn) [Compound 14o] 48.6

Query: HDAC inhibition (%); subject: O=C(O)CCCCC(=O)NCCCC[C@H](NC(=O)OCc1ccccc1)C(=O)Nc1ccccc1 [Compound 16b] 4.3

Query: HDAC inhibition (%); subject: O=C(CCCCC(=O)NCCCC[C@H](NC(=O)OCc1ccccc1)C(=O)Nc1ccccc1)NO [Compound 18b] 99.9

###

Tested on: HDACs (HeLa nuclear extract)
Protocol Description: HDAC deacetylation inhibition assay, HeLa nuclear extract with BOC-Ac-Lys-AMC substrate
Assay type: biochemical, human
Condition Notes: compound at 100 µM, BOC-Ac-Lys-AMC substrate
HDAC inhibition (%) values for the compounds below.
Numeric answer only, unit % assumed.

>>> result_value("O=C(N[C@@H](CCCCNC(=O)c1cnc2ccccc2c1)C(=O)Nc1ccccc1)OCc1ccccc1 [Compound 14h]")
28.3
>>> result_value("O=C(N[C@@H](CCCCNC(=O)c1c[nH]c2ccccc12)C(=O)Nc1ccccc1)OCc1ccccc1 [Compound 14j]")
12.2

Query: HDAC inhibition (%); subject: O=C(N[C@@H](CCCCNC(=O)c1coc2ccccc12)C(=O)Nc1ccccc1)OCc1ccccc1 [Compound 14m] 14.3

Query: HDAC inhibition (%); subject: O=C(N[C@@H](CCCCNC(=O)c1ccc2ncccc2c1)C(=O)Nc1ccccc1)OCc1ccccc1 [Compound 14i] 36.8

Query: HDAC inhibition (%); subject: Nc1ccccc1NC(=O)CCC(=O)NCCCC[C@H](NC(=O)OCc1ccccc1)C(=O)Nc1ccccc1 30.7

Query: HDAC inhibition (%); subject: O=C(N[C@@H](CCCCNC(=O)c1cccs1)C(=O)Nc1ccccc1)OCc1ccccc1 [Compound 14f] 45.0

Query: HDAC inhibition (%); subject: COC(=O)CC(=O)NCCCC[C@H](NC(=O)OCc1ccccc1)C(=O)Nc1ccccc1 [Compound 15a] 19.4

###

Tested on: HDACs (HeLa nuclear extract)
Protocol Description: HDAC deacetylation inhibition assay, HeLa nuclear extract with BOC-Ac-Lys-AMC substrate
Format: biochemical, human
Condition Notes: compound at 100 µM, BOC-Ac-Lys-AMC substrate
Metric Name: HDAC inhibition (%)
Numeric answer only, unit % assumed.

>>> result_value("O=C(N[C@@H](CCCCNC(=O)C1=CCc2ccccc21)C(=O)Nc1ccccc1)OCc1ccccc1 [Compound 14k]")
22.4
>>> result_value("O=C(N[C@@H](CCCCNC(=O)c1cccnc1)C(=O)Nc1ccccc1)OCc1ccccc1 [Compound 14a]")
39.6

Query: HDAC inhibition (%); subject: O=C(CCC(=O)NCCCC[C@H](NC(=O)OCc1ccccc1)C(=O)Nc1ccccc1)NO [Compound 11] 86.0

###

HDAC inhibition (%) values for the compounds below.
System: HDACs (HeLa nuclear extract)
Protocol Description: HDAC deacetylation inhibition assay, HeLa nuclear extract with BOC-Ac-Lys-AMC substrate
Assay type: biochemical, human
Condition Notes: compound at 100 µM, BOC-Ac-Lys-AMC substrate
Numeric answer only, unit % assumed.

Example cases with answers are listed next.
>>> result_value("O=C(O)/C=C/C(=O)NCCCC[C@H](NC(=O)OCc1ccccc1)C(=O)Nc1ccccc1 [Compound 10]")
38.7
>>> result_value("Cc1ccc(C(=O)NCCCC[C@H](NC(=O)OCc2ccccc2)C(=O)Nc2ccccc2)cn1 [Compound 14b]")
39.2
>>> result_value("Nc1ccccc1NC(=O)CCCCCCC(=O)NCCCC[C@H](NC(=O)OCc1ccccc1)C(=O)Nc1ccccc1 [Compound 17c]")
50.6
>>> result_value("O=C(N[C@@H](CCCCNCc1c[nH]c2ccccc12)C(=O)Nc1ccccc1)OCc1ccccc1 [Compound 14l]")
3.1
>>> result_value("O=C(O)CCCCCCC(=O)NCCCC[C@H](NC(=O)OCc1ccccc1)C(=O)Nc1ccccc1 [Compound 16c]")
1.1
>>> result_value("O=C(N[C@@H](CCCCNC(=O)c1ccco1)C(=O)Nc1ccccc1)OCc1ccccc1 [Compound 14e]")
54.0

Query: HDAC inhibition (%); subject: O=C(/C=C/C(=O)NCCCC[C@H](NC(=O)OCc1ccccc1)C(=O)Nc1ccccc1)NO [Compound 13] 39.3

Query: HDAC inhibition (%); subject: O=C(CCCCCCC(=O)NCCCC[C@H](NC(=O)OCc1ccccc1)C(=O)Nc1ccccc1)NO [Compound 18c] 109.2

Query: HDAC inhibition (%); subject: O=C(CS)NCCCC[C@H](NC(=O)OCc1ccccc1)C(=O)Nc1ccccc1 [Compound 14g] 10.3

Query: HDAC inhibition (%); subject: O=C(O)CC(=O)NCCCC[C@H](NC(=O)OCc1ccccc1)C(=O)Nc1ccccc1 [Compound 16a] 4.0

Query: HDAC inhibition (%); subject: O=C(O)CCC(=O)NCCCC[C@H](NC(=O)OCc1ccccc1)C(=O)Nc1ccccc1 [Compound 9] 37.5

Query: HDAC inhibition (%); subject: CC(C)(C)OC(=O)N[C@@H](Cc1c[nH]c2ccccc12)C(=O)NCCCC[C@H](NC(=O)OCc1ccccc1)C(=O)Nc1ccccc1 [Compound 14p] 24.7
